Data provenance is ChEMBL document CHEMBL1961873.

Tested on: Mast/stem cell growth factor receptor Kit (Homo sapiens), P10721 [D816V]
Sequence (P10721 whole entry D816V): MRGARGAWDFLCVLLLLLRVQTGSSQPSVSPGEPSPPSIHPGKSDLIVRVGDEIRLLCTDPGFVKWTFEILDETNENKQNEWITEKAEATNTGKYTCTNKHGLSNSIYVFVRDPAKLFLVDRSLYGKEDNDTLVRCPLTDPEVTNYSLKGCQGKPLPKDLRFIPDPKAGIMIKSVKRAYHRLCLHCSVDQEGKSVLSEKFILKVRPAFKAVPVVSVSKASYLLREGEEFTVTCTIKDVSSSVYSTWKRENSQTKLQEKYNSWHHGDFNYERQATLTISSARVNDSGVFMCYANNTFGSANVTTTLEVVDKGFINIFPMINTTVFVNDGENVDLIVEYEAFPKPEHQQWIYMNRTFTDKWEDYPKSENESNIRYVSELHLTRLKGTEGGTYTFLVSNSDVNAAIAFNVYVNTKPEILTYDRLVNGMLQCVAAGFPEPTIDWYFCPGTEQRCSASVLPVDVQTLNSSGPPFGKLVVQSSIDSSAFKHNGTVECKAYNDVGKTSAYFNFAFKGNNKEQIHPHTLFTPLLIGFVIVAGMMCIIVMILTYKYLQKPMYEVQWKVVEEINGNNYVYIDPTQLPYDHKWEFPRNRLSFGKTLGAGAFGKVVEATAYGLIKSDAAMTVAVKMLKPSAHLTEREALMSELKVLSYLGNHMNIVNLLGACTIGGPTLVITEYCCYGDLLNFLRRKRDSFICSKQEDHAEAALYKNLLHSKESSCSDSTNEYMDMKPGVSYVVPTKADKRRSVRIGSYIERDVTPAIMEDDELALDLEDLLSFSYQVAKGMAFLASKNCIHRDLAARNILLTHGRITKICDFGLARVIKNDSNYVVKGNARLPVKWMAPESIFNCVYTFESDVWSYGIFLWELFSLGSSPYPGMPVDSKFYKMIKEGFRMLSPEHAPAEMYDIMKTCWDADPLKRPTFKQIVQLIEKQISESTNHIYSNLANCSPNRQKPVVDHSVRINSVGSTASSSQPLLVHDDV
Details: at 0.1 µM
Listed below: inhibition values for each entry.
I only need the number, in %, no unit after it.

Some entries whose results are on file:
NS(=O)(=O)c1ccc(N/N=C2\C(=O)Nc3cccc(CCc4ccncc4)c32)cc1
2.92
CC1(C)CC(n2cnc(-c3ccc(F)cc3)c2-c2ccnc(N)n2)CC(C)(C)N1
-0.86

Now examine the next entry.
Missing value: inhibition, Mast/stem cell growth factor receptor Kit (Homo sapiens), P10721 [D816V], entry OCCCNc1nccc(-c2c(-c3ccc(F)cc3)nn3cc(C(F)(F)F)ccc23)n1 . Fill in?
1.58
